TEST TARGET: T1, human IL-11 (human, UniProt P20809 22-199)
T1 sequence: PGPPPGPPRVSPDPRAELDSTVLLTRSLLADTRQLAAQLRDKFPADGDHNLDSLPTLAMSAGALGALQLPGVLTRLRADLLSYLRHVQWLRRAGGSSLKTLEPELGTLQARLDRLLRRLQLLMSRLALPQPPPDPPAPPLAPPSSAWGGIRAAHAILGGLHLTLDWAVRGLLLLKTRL
MEASUREMENT NOTES: cell-based or functional assay
Record t whenever RGA IC50 is at 3 nM or higher; record f when lower.

Data request: Threshold query (RGA IC50 >= 3 nM) on TPP-26291 (antibody, V domains shown) VH: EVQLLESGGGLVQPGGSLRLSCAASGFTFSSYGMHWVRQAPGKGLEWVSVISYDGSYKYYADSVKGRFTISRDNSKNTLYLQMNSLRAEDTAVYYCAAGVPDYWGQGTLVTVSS VL: QSVLTQPPSASGTPGQRVTISCTGSSSNIGAGYDVHWYQQLPGTAPKLLIYSNNERPSGVPDRFSGSKSGTSASLAISGLRSEDEADYYCAAWDPSLNGPVFGGGTKLTVL
Data returned: t

Data request: Is the recorded value of RGA IC50 equal to or greater than 3 nM for this binder? TPP-26296 (antibody, V domains shown) VH: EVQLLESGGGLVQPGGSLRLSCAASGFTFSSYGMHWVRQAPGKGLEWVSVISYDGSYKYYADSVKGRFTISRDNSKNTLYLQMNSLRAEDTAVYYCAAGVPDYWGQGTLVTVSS VL: QSVLTQPPSASGTPGQRVTISCTGSSSNIGAGYDVHWYQQLPGTAPKLLIYSNNERPSGVPDRFSGSKSGTSASLAISGLRSEDEADYYCAAWDNSLNGPVFGGGTKLTVL
Data returned: t

Data request: Answer whether RGA IC50 of TPP-26306 (antibody, V domains shown) VH: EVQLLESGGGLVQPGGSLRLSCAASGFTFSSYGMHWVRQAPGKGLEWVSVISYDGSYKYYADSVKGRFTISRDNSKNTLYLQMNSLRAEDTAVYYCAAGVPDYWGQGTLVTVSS VL: QSVLTQPPSASGTPGQRVTISCTGSSSNIGAGYDVHWYQQLPGTAPKLLIYSNNERPSGVPDRFSGSKSGTSASLAISGLRSEDEADYYCAAWDQSLNGPVFGGGTKLTVL is greater than or equal to 3 nM.
Data returned: f

Data request: // inclusive: RGA IC50 at least 3 nM? input: TPP-26293 (antibody, V domains shown) VH: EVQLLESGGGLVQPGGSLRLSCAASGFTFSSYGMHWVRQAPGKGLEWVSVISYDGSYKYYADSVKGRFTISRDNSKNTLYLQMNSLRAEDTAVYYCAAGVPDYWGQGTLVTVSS VL: QSVLTQPPSASGTPGQRVTISCTGSSSNIGAWYDVHWYQQLPGTAPKLLIYSNNERPSGVPDRFSGSKSGTSASLAISGLRSEDEADYYCAAWDDSLNGPVFGGGTKLTVL
Data returned: f

Data request: Kindly determine if RGA IC50 recorded for TPP-26295 (antibody, V domains shown) VH: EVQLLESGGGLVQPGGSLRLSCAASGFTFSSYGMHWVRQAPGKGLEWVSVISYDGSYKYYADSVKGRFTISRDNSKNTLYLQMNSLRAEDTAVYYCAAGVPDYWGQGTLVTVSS VL: QSVLTQPPSASGTPGQRVTISCTGSSSNIGAGYDVHWYQQLPGTAPKLLIYSNNERPSGVPDRFSGSKSGTSASLAISGLRSEDEADYYCAAWDHSLNGPVFGGGTKLTVL is above or exactly 3 nM.
Data returned: t
